For each entry below, report its log10(Kd) value.
Target: Fyn SH2 domain (Homo sapiens)
Construct: The human SH2 domains from Fyn (142–248), Lyn (121–228); His6-SUMO (N, cleaved yes); host or cells: Escherichia coli C43(DE3) with BirA helper plasmid
Sequence (P06241 142-248): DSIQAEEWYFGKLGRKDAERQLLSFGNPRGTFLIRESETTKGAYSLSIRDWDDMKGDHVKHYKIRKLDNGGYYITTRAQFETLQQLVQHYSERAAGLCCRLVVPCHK
Assay: biochemical
Assay type: binding
Non-standard residues stand in square brackets, D forms with d. Residues, ends and D or L forms follow the SMILES beside them. pY = N[C@@H](Cc1ccc(OP(=O)(O)O)cc1)C(=O)O
log10 Kd, nM

Illustrative cases are given below, each with its answer.
CSCC[C@H](NC(=O)[C@H](CCC(N)=O)NC(C)=O)C(=O)N[C@@H](CCC(=O)O)C(=O)N[C@@H](CCCCN)C(=O)N[C@@H](Cc1c[nH]cn1)C(=O)N[C@H](C(=O)N[C@@H](Cc1ccc(OP(=O)(O)O)cc1)C(=O)N[C@@H](CCC(=O)O)C(=O)N[C@@H](CO)C(=O)N[C@H](C(=O)N[C@H](C(=O)N[C@@H](CCC(N)=O)C(=O)NCC(N)=O)[C@@H](C)O)C(C)C)C(C)C [Syn-F-2] (Ac-QMEKHV[pY]ESVTQG-NH2) | 1.26
CC[C@H](C)[C@H](NC(=O)[C@@H]1CCCN1C(=O)[C@H](CCC(N)=O)NC(C)=O)C(=O)N[C@@H](Cc1ccccc1)C(=O)N[C@@H](CCC(=O)O)C(=O)NCC(=O)N[C@@H](Cc1ccc(OP(=O)(O)O)cc1)C(=O)N[C@@H](C)C(=O)N[C@@H](CC(C)C)C(=O)N1CCC[C@H]1C(=O)N[C@@H](Cc1c[nH]cn1)C(=O)N[C@@H](C)C(=O)NCC(N)=O [ACTA1 pY171] (Ac-QPIFEG[pY]ALPHAG-NH2) | 1.67

Look at each compound and report its log10(Kd).
1. CC(=O)N[C@@H](CCC(N)=O)C(=O)N[C@@H](CO)C(=O)N[C@@H](CC(C)C)C(=O)N[C@@H](CCC(=O)O)C(=O)N[C@@H](CCCCN)C(=O)N[C@@H](CO)C(=O)N[C@@H](Cc1ccc(OP(=O)(O)O)cc1)C(=O)N[C@@H](CCC(=O)O)C(=O)N[C@@H](CC(C)C)C(=O)N[C@@H](CC(C)C)C(=O)N[C@@H](CC(=O)O)C(=O)NCC(=O)NCC(N)=O [ACTB pY240 P243L] (Ac-QSLEKS[pY]ELLDGG-NH2)
2. CC[C@H](C)[C@H](NC(=O)CNC(=O)[C@H](CCC(=O)O)NC(=O)[C@@H](NC(=O)[C@H](CCC(N)=O)NC(C)=O)C(C)C)C(=O)N[C@@H](CO)C(=O)N[C@@H](Cc1ccc(OP(=O)(O)O)cc1)C(=O)N[C@@H](CC(=O)O)C(=O)N[C@@H](Cc1ccccc1)C(=O)N[C@H](C(=O)N1CCC[C@H]1C(=O)N[C@H](C(=O)NCC(N)=O)[C@@H](C)O)[C@@H](C)CC [CBS pY308 G307S] (Ac-QVEGIS[pY]DFIPTG-NH2)
3. CC(=O)N[C@@H](CCC(N)=O)C(=O)N[C@@H](CC(C)C)C(=O)N[C@@H](Cc1c[nH]cn1)C(=O)N[C@H](C(=O)N[C@@H](Cc1c[nH]cn1)C(=O)N1CCC[C@H]1C(=O)N[C@@H](Cc1ccc(OP(=O)(O)O)cc1)C(=O)N[C@@H](CCC(=O)O)C(=O)N[C@@H](CCCCN)C(=O)N[C@H](C(=O)N[C@@H](CCC(=O)O)C(=O)N[C@@H](CC(=O)O)C(=O)NCC(N)=O)C(C)C)C(C)C [Syn-F-1] (Ac-QLHVHP[pY]EKVEDG-NH2)

stdout:
2.15
2.27
1.48

Where these numbers come from: paper PMC12521615
